# credit: patent US5688787A

System: Hyperlipidemic Hamster
protocol: In Vivo Assay of Hypolipidemic Agents Using the Hyperlipidemic Hamster
condition-set: 50 mg/kg once daily oral, 7 days; percent change versus control, negative = lowering
Readings of % Reduction (in vivo) Serum Cholest. for the listed compounds
assay-endpoint: % Reduction (in vivo) Serum Cholest. (%)

[[record]]
compound = "COc1ccc(N2C(=O)C(CCCc3ccccc3)C2c2ccc(C3OCCO3)cc2)cc1 (stereo not shown) [Example 1AX]"
tested_system = "Hyperlipidemic Hamster"
assay_endpoint = "% Reduction (in vivo) Serum Cholest."
result_number = -16

[[record]]
compound = "COc1ccc([C@@H]2[C@@H](CCCc3ccccc3)C(=O)N2c2ccc(OC)cc2)cc1 (relative stereo) [Example 5W]"
tested_system = "Hyperlipidemic Hamster"
assay_endpoint = "% Reduction (in vivo) Serum Cholest."
result_number = 0

[[record]]
compound = "COc1ccc(N2C(=O)C(CCCc3ccccc3)C2c2ccc(C3OCCO3)cc2)cc1 (stereo not shown) [Example 31A]"
tested_system = "Hyperlipidemic Hamster"
assay_endpoint = "% Reduction (in vivo) Serum Cholest."
result_number = 0

[[record]]
compound = "COc1ccc([C@@H]2[C@@H](CCCc3ccccc3)C(=O)N2c2ccc(OC)cc2)cc1 (relative stereo) [Example 5]"
tested_system = "Hyperlipidemic Hamster"
assay_endpoint = "% Reduction (in vivo) Serum Cholest."
result_number = -29


----------
Tested on: Hyperlipidemic Hamster
protocol: In Vivo Assay of Hypolipidemic Agents Using the Hyperlipidemic Hamster
condition-set: Mesocricetus auratus, po, 168 h, 50 mg/kg once daily oral, 7 days; percent change versus control, negative = lowering; read-out: % Reduction (in vivo) Cholest. Esters
Description: In Vivo Assay of Hypolipidemic Agents Using the Hyperlipidemic Hamster Hamsters are separated into groups of six and given a controlled cholesterol diet (Purina Chow #5001 containing 0.5% cholesterol) for seven days. Diet consumption is monitored to determine dietary cholesterol exposure in the face of test compounds. The animals are dosed with the test compound once daily beginning with the initiation of diet. […]
Readings of change in vivo at 50 mg/kg for the listed compounds
assay-endpoint: change in vivo at 50 mg/kg (%)

[[record]]
compound = "COc1ccc(C(=O)[C@@H]2[C@@H](CCCc3ccccc3)C(=O)N2c2ccc(OC)cc2)cc1 (relative stereo)"
result_unit = "%"
result_number = 0

[[record]]
compound = "CCCCCCCCCC[C@]1(c2ccccc2)C(=O)N(c2ccc(OC)cc2)[C@H]1c1ccccc1 (relative stereo)"
result_unit = "%"
result_number = 0

[[record]]
compound = "CON=Cc1ccc([C@H]2[C@@H](CCCc3ccccc3)C(=O)N2c2ccc(OC)cc2)cc1 (relative stereo)"
result_unit = "%"
result_number = -36

[[record]]
compound = "COc1ccc(N2C(=O)[C@H](CCCc3ccccc3)[C@H]2c2ccc(N(S(C)(=O)=O)S(C)(=O)=O)cc2)cc1 (relative stereo) [Example 25A]"
result_unit = "%"
result_number = 0

[[record]]
compound = "CCOC(=O)c1ccc([C@H]2[C@@H](CCCc3ccccc3)C(=O)N2c2ccc(OC)cc2)cc1 (relative stereo)"
result_unit = "%"
result_number = 0

[[record]]
compound = "COc1ccc(N2C(=O)[C@@H](CCCc3ccccc3)[C@@H]2c2ccc(C(=O)O)cc2)cc1 (relative stereo)"
result_unit = "%"
result_number = -33


----------
System: Hyperlipidemic Hamster
protocol: In Vivo Assay of Hypolipidemic Agents Using the Hyperlipidemic Hamster
condition-set: Mesocricetus auratus, po, 168 h, 50 mg/kg once daily oral, 7 days; percent change versus control, negative = lowering; read-out: % Reduction (in vivo) Cholest. Esters
Readings of change in vivo at 50 mg/kg for the listed compounds
assay-endpoint: change in vivo at 50 mg/kg (%)

[[record]]
compound = "COc1ccc([C@H]2[C@@H](CCCCCCc3ccccc3)C(=O)N2c2ccc(OC)cc2)cc1 (relative stereo)"
result_unit = "%"
result_number = -17

[[record]]
compound = "COc1ccc([C@@H]2[C@@H](OCCc3ccccc3)C(=O)N2c2ccc(OC)cc2)cc1 (relative stereo)"
result_unit = "%"
result_number = 0

[[record]]
compound = "COc1ccc(N2C(=O)[C@H](CCCc3ccccc3)[C@@H]2c2ccc(C3OCCO3)cc2)cc1 (relative stereo)"
result_unit = "%"
result_number = -52

[[record]]
compound = "CCCCCCCCCC[C@]1(CCCc2ccccc2)C(=O)N(c2ccc(OC)cc2)[C@@H]1c1ccccc1 (relative stereo)"
result_unit = "%"
result_number = 0

[[record]]
compound = "COc1cc(OC)c(N2C(=O)C(CCCc3ccccc3)C2c2ccccc2)c(OC)c1 (stereo not shown)"
result_unit = "%"
result_number = 20

[[record]]
compound = "CCOC(=O)c1ccc(N2C(=O)[C@H](CCCc3ccccc3)[C@H]2c2ccc(OC)cc2)cc1 (relative stereo)"
result_unit = "%"
result_number = -54

[[record]]
compound = "CCCCCCCCCC[C@@H]1C(=O)N(c2ccc(OC)cc2)[C@H]1c1ccccc1 (relative stereo)"
result_unit = "%"
result_number = 0

